Molecular target: ERα (Homo sapiens, UniProt P03372)
Sequence (P03372 1-595): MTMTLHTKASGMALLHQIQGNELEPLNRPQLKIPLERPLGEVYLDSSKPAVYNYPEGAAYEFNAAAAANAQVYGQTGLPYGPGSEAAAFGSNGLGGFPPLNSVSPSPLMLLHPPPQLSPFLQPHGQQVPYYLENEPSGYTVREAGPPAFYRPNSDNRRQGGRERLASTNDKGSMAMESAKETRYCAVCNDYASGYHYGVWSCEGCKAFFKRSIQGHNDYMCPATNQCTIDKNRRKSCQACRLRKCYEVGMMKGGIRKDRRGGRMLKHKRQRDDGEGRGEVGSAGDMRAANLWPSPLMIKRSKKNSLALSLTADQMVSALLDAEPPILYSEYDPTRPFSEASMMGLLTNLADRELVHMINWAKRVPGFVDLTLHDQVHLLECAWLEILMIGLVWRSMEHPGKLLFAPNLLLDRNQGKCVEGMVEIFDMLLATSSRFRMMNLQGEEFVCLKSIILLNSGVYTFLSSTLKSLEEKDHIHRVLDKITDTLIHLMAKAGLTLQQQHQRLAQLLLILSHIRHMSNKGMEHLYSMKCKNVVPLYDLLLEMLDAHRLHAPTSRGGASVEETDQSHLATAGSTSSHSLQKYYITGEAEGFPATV
Experiment: Degradation of ERα in MCF-7 cells (immunoblotting, 4 h)
Assay type: cell-based
Details: 10nM compound
// NB: equality with 20% counts as false; only Degradation rate (%) of ERα in MCF-7 cells strictly below is true

C[C@@H]1Cc2c(ccc3[nH]ncc23)[C@@H](c2c(F)cc(N3CCC4(CCN(CC(=O)N5CCC6(CC5)COc5c6ccc6c5CN(C5CCC(=O)NC5=O)C6=O)CC4)CC3)cc2F)N1CC(F)F (some centres unmarked)
false

Ask: # check: Degradation rate (%) of ERα in MCF-7 cells < 20% for O=C1CCC(N2Cc3c(ccc4c3OCC43CCN(C4CC5(C4)CC4(CCN(c6ccc([C@@H]7c8ccc(O)cc8CC[C@@H]7c7ccccc7)cc6)CC4)C5)CC3)C2=O)C(=O)N1 (some centres unmarked)
Result: false

Ask: # check: Degradation rate (%) of ERα in MCF-7 cells < 20% for O=C1CCC(N2Cc3ccc4c(c3C2=O)OCC42CCN(C3CC4(CCN(c5ccc([C@@H]6c7ccc(O)cc7CC[C@@H]6c6ccccc6)cc5)CC4)C3)CC2)C(=O)N1 (some centres unmarked)
Result: true

Ask: # check: Degradation rate (%) of ERα in MCF-7 cells < 20% for CN(CC(=O)N1CCC2(CC1)COc1c2ccc2c1CN(C1CCC(=O)NC1=O)C2=O)C1CCC2(CC1)CN(c1ccc([C@@H]3c4ccc(O)cc4CC[C@@H]3c3ccccc3)cc1)C2 (some centres unmarked)
Result: false

Ask: # check: Degradation rate (%) of ERα in MCF-7 cells < 20% for O=C1CCC(N2C(=O)c3cc4c(cc3C2=O)OCC2(CCN(CC3CCC5(CC3)CCN(c3ccc([C@@H]6c7ccc(O)cc7CC[C@@H]6c6ccccc6)cc3)CC5)CC2)C4)C(=O)N1 (some centres unmarked)
Result: true

====

molecular target: UniProtKB P03372; experiment: Degradation of ERα in MCF-7 cells (immunoblotting, 4 h); type: cell-based; conditions: 1nM compound
Degradation rate (%) of ERα in MCF-7 cells reference

O=C1CCC(N2Cc3ccc4c(c3C2=O)OC2(CC4)CCN(CC3CCN(c4ccc([C@@H]5c6ccc(O)cc6CC[C@@H]5c5ccccc5)cc4)CC3)CC2)C(=O)N1 (stereo partly drawn)
12%
O=C1CCC(N2Cc3c(ccc4c3OCC43CCN(CC(=O)N4CCC5(CC4)CCN(c4ccc([C@@H]6c7ccc(O)cc7CC[C@@H]6c6ccccc6)cc4)CC5)CC3)C2=O)C(=O)N1 (stereo partly drawn)
28%

With those in mind, consider the next compound.
Ask: Can you look up the measured Degradation rate (%) of ERα in MCF-7 cells of O=C1CCC(N2Cc3c(ccc4c3OCC43CCN(C(=O)CN4CCN(c5ccc([C@@H]6c7ccc(O)cc7CC[C@@H]6c6ccccc6)cc5)CC4)CC3)C2=O)C(=O)N1 (stereo partly drawn) for me?
Result: 8%
